- Measurement notes: folding stability dG unfold from trypsin proteolysis; higher = more stable
# reported folding stability dG unfold; entries follow
Reported endpoint: folding stability dG unfold (kcal/mol)

- SAGGSAGGSAGGAMREVPIVLPFSPEMSEEEARALIEEELKRKGDPIAKLVIDKKSPALLSAGGSAGGSAGG [r7_703_JUSTAS]: -0.687
- FRFTIPLPDGKKIIIDYRPMPDGNYMFDVKLQLPNGKERTIPIMVPREEFPGMPMEEMAETMVKEALKKLKS [r1_92_TrROS]: 2.63
- SAGGSAGGSAGGMVETGTPSSGSSSPSYVLTTTTLTLLDGTFVPTTTTTTFSDPAEAAAASAGGSAGGSAGG [r7_896_JUSTAS]: 1.52
- SAGGSAGGSPPGWTIMMFEITISITVPRVEVYDPKDGKPRAEVPYVRVSIPIPIFIIFPAGAFSAGGSAGGS [r12_600_TrROS]: 2.93
- SAGGMSFTMTVPPSNPNQVVGTNVPVSDVPPNYAYTLHFPNTGTTTTIPVSQAEEVKAQPHIDEITATSAGG [r19_302_JUSTAS]: 0.688
- SVPPNAPPGMKPKRVEIFIFIPPELYDKDGKISPEQLKKAKGMAKMIKLRLREQYPGYGIDDVKVHIMPGSA [r9_943_TrROS]: 2.76
- SAGGSAKVKIEVIELPPGMTEEELRKLAEEKGLKVEKVDKENLLVKITAKSKEEAEKIKKELEEKLSAGGSA [r15_546_TrROS_Hall]: 0.449

----------
- Measurement notes: folding stability dG unfold from trypsin proteolysis; higher = more stable
Reported endpoint: folding stability dG unfold (kcal/mol)

* SAGGSAGGSSGTVTLRLRFRVVDLDPATGEASEHEFELTLTVPIELPAAAPPATPTYGLTLPGSAGGSAGGS [r12_140_TrMRF] | 0.895
* SAGGSAGGSGSSSMPVTVEVKPLATEVDPSNGLVTVTELVTVTRGDTTTLTVTTTTLPPGAPASAGGSAGGS [r12_1010_JUSTAS] | 1.16
* SAGGSAGLPEAIAEAIARELQAEPGYELDVEAEVDPETGTLHIRARVRLPDDDTWFELEITVPLPASAGGSA [r15_464_TrMRF] | 1.75
* SAGGSAGGMKVIEIDLPDGSKLKIVIYKDGTLPAYLPEGNKVIVLEIDKNGKIKSVKVFDAKDISAGGSAGG [r6_81_TrMRF] | 2.87

----------
# reported folding stability dG unfold; entries follow
- Measurement notes: folding stability dG unfold from trypsin proteolysis; higher = more stable
Reported endpoint: folding stability dG unfold

* SEKPEVTIKIEVEEREDGYLVVRVEVTFPEDPEKVELTLEMSREEAEELAKKLAEELPGVKVKVEIVELPSA [r9_374_TrROS_Hall] | 10.1 kJ/mol
* SAGGSAKEWVWVISIKYRYPNGEPLAPIPIMIPPDDPEIDIDEIADEIARKHGLDEIEVNIHPIPVSAGGSA [r15_333_TrROS] | 6.66 kJ/mol
* SAGGSSSVGVDSSDPEKTKEAILKAYGTDAEPVFTTDPATGRLTITVPETGDVHTVTAGTRTETAASAGGSA [r2_205_JUSTAS] | 5.31 kJ/mol
* SAGGSAGGEFTVTVTIEKDEEKGFIRIPISVSLPSSAFVPKTVEFLEFAKTLKENLPELEVDASSAGGSAGG [r6_102_TrMRF] | 2.55 kJ/mol
* SAGGSAGGSAGGEAFEVERVELVLDPETGTPYLLVYFRDGRVLVYDLPRGTWRVVPAEELSAGGSAGGSAGG [r11_922_TrMRF] | 9.26 kJ/mol
* SAGGSAGGSDPSEVRLTFTVTVELTFDAVLFYEPGTGRLVAVAPYLRVEVEVEVTLTFPADALSAGGSAGGS [r12_600_TrMRF] | 13.3 kJ/mol
* SAGGSAGGSPESVTFPVGDYLVTVTRNPEDGSLTVTVYDPKTGKPIVLPPEVLAENPDLAENLSAGGSAGGS [r12_817_TrMRF] | 13.2 kJ/mol
* SMVITLPVEDEEKLKELLDELKEQLEKAEEEGLETVTITITLEDGETLEITIDKNMTVEELLEQLEKALESA [r9_127_TrROS_Hall] | 13.5 kJ/mol
* SAGQTIRIDEIYPHPDGFLIKIRYPDGKVHTFPIKPNMPITVDGDTITITFPGGPITIPLENMEIEILPSAG [r5_999_TrROS] | 13.7 kJ/mol
* SAGGSAGGEVKIEVNKEKGYLLITVPKEEAEEIAKALKEKFGIKEVKIEVDEETDEVHILVKLESAGGSAGG [r6_661_TrROS_Hall] | 10.5 kJ/mol
* SAGGSAGGSASAEEIAAKIEALFPVKVTVVREEPTPLGRPEVVIEVDAVGVPEELLEEVLKSAGGSAGGSAG [r3_40_JUSTAS] | 2.84 kJ/mol
* SAGGSAGGSAGYLELKISFFDPDGQILASITIWIEIVIPPPPKMEYERDPEDGNNKWEHDSAGGSAGGSAGG [r17_348_TrROS] | 10.4 kJ/mol
* SAGGSAGGSAGGPPLKVTEVETHKHPNGHRYVTMTLRPPNGGPVTIMFDPNNGKIQIMISAGGSAGGSAGGS [r10_1218_TrROS] | 9.16 kJ/mol
* SAGGGKTVEVTIEVPGENAVVYIKVYDKDKPISVFPAEFIPPTGTATFTIDVPEDAEITAEVALPEEASAGG [r13_977_TrMRF] | 0.443 kJ/mol
